Below, each entry is listed with its recorded IC50.
assayed_target: ATPase family AAA domain-containing protein 2 (Homo sapiens)
Sequence (Q6PL18 whole entry, the tested form may be a part): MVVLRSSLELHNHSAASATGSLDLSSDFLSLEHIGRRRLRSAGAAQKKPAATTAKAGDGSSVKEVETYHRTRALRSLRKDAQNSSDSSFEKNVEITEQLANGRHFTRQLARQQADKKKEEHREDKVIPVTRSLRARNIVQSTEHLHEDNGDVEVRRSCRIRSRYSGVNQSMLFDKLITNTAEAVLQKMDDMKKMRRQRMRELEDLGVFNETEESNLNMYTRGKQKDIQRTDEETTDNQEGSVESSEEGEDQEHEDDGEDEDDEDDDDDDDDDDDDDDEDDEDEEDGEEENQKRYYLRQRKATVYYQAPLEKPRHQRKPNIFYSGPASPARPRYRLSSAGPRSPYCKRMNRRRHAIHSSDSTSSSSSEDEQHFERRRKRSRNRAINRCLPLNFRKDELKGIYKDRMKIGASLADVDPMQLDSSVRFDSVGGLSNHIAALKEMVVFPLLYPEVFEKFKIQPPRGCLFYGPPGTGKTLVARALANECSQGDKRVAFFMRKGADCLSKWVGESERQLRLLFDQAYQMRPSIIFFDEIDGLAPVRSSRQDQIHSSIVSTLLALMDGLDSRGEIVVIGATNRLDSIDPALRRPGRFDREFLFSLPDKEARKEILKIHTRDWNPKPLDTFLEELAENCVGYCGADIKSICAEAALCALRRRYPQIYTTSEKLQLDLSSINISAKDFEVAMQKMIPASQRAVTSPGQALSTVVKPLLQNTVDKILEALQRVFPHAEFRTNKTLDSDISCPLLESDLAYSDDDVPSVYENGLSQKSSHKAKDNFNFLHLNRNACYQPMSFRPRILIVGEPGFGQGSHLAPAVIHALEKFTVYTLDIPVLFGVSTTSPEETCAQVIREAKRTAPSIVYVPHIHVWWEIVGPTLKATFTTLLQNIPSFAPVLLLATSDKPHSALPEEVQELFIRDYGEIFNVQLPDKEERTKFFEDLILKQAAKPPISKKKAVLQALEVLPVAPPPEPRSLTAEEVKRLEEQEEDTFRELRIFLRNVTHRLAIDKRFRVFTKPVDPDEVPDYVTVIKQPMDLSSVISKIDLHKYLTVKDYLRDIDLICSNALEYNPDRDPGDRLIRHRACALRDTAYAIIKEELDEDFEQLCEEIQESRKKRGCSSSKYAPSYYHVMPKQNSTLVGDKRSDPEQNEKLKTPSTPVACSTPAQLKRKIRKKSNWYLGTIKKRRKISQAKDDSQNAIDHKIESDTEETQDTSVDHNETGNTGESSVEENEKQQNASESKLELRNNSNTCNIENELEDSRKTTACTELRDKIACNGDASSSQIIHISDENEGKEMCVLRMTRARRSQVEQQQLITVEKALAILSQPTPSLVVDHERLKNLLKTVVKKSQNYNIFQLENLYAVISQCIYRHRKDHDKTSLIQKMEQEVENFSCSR

Cc1cc2ccnc(N[C@@H]3CCNC[C@H]3C(=O)NC3CCOCC3)c2[nH]c1=O (mixture of isomers) : > 39.8 µM

Query compound follows.
q: Item Cc1cc2ccnc(N[C@@H]3CCNC[C@H]3C(=O)NCC3CCCC3)c2[nH]c1=O (mixture of isomers) with ATPase family AAA domain-containing protein 2 (Homo sapiens) - IC50?
a: > 39.8 µM

---

assayed_target: Bromodomain-containing protein 3 (Homo sapiens)
Sequence (Q15059 whole entry): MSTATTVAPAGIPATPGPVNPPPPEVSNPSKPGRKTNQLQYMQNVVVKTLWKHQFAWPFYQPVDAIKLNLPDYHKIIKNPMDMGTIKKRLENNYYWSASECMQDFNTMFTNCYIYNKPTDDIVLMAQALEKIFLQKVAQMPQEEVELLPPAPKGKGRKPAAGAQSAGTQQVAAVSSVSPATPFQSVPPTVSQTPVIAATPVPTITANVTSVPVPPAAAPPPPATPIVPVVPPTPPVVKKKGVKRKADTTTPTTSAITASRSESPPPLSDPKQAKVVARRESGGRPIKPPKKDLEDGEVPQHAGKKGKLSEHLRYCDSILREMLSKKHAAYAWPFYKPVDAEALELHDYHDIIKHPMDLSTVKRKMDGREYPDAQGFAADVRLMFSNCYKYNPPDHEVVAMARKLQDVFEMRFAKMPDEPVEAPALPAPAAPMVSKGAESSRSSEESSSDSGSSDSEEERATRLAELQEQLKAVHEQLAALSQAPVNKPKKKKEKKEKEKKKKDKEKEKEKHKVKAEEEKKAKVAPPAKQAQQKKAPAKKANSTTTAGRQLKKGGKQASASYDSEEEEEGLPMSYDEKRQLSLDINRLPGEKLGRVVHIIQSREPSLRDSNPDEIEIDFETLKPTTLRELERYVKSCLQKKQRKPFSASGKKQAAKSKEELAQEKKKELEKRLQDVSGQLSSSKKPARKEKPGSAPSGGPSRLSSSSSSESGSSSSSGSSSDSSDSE
assay_details: Binding affinity to full length BRD3 BD2 in human HuT78 cell lysates incubated for 45 mins by liquid chromatography-mass spectrometry based chemoproteomic binding assay
Format: subcellular
measured_endpoint: pKd
Scale note: pKd = -log10(concentration in M).

q: Requested read-out: pKd. Entry: Cc1cc2c(-c3ccco3)cnc(N[C@@H]3CCN(C)C[C@H]3C(=O)NC3CCCCC3)c2[nH]c1=O [GSK789]
a: 5.20
